Known Enzyme Activity Endpoint Assay (purified): IgG of a selection of proteins
experimentalSystem: pooled human IgG (human IgG1,2,3 and 4)
Report the value in ng/µL with no unit label.

The measured Enzyme Activity Endpoint Assay (purified): IgG associated with PRT-359 (protein) MSQTEDSESLQRLRDIEDFQAEKKDQNVVYTKWLDGVDVKDHDFRKIVDGNIAYYATPLLNGRGLYDINKDFNRDSDKCAAAVAANMFHYWLDRNRDNVDRFLRQNPEKHGIIELPDGQLKLSDFLNTYESDDGYRDKSKLFDFISENFNGPVWTDKLLDNYINGYAYNYKYGRTIEDPTKNTSKINFFKEVFNEKILTNNHSIRNQNELSVLLSEALYTGKAIGLSYGPAGLRHSLGHIISVWGADLDADGNVVAIYVTDSDDKKLTIGDERVGLKRYKISTDDEGRLRLTAYEETHNTGGQVRGLWTLDTGKQAWADYFDKTEQTGTDQAEQ reads 202

The measured Enzyme Activity Endpoint Assay (purified): IgG associated with PRT-318 (protein) MTITSVWTKGVTPPTPEDFRYNNEDVLHAPYVANQGWYDITKTFDGKDNLLCGAATAGNMLHWWFDQNKEEIERYLKKHPEKQKIIFNNQEWFDVKAAIDTKDSQTNSKLFDYFRDKAFPNLSARQLGVMPDLVLDMFINGYYLNLGKTQSTDVNRPYQDKDKRGGIFDAVFTRGDQTTLLTARHDLKNKGLNEISDLIKQELTEGKALALSHTYANVRINHVINLWGADFDAEGNLIAIYVTDSDANASIGMKKYFVGVNANGKVAISAKKIEGDNIGAQVLGLFTLSLGQDIWQKLS reads 110

The measured Enzyme Activity Endpoint Assay (purified): IgG associated with PRT-352 (protein) MSQTEDSESLQRLRDIEDFQAEKKMQNVVYTKWLDGVDVKDHDFRKIVDGNSAYYATPLLNGRGFYDINKDFNRDSDKCAAAVAANMFHYWLDINRDNVDRFLRQNPEKHGIIELPDGQLKLSDFLNTYESDHGYRDKSKLFDFISENFNGPVWTDKLLDNYINGYAYNSKYGRTIEDPTKNTSKINFFKEVFNEKILTNNHSIRNQNEFSVLLIEALYTGKAIGLSYGPAGLRHGLGHIISVWGADLDADGNVVAIYVTDSDDKKLTIGDERVGLKRYKISTDDENRLRLTAYEETHNTGGQIRGLWTLDTGKYAWADYFDKTEQTGTDQAEQ reads 281

For the next question, use this protein.
The measured Enzyme Activity Endpoint Assay (purified): IgG associated with PRT-473 (protein) MVTSVWTKGVTPPTDFRKIVDGNIAYYHAPYKAGQGWYDITKTFNGKDDLLCGAATAGNMLHWWFDQNKEQIENYLKKHPEKQKINFNGEQMFDVKEAIDTKDSQLDSKLFEYFKEKAFPYLSTKHLGVFPDHVIDMFINGYRLSLTNHGPTPVKRGSKDPRGGIFDAVFTRGDQSKLLTNRHDFKEKTLKEISDLIKQELTEGKALGISHTYANVRINHVINLWGADFDAEGNLEAIYVTDSDSNASIGMKKYFVGVNSNGKVAISAKEIEEDNIGAQVLGLFTLSTGQDIWNQTNLEHHHHHH reads 59
